- Tgt: Fibroblast growth factor receptor 4 (Homo sapiens) (UniProt P22455)
- Sequence (P22455 22-802 limits assumed): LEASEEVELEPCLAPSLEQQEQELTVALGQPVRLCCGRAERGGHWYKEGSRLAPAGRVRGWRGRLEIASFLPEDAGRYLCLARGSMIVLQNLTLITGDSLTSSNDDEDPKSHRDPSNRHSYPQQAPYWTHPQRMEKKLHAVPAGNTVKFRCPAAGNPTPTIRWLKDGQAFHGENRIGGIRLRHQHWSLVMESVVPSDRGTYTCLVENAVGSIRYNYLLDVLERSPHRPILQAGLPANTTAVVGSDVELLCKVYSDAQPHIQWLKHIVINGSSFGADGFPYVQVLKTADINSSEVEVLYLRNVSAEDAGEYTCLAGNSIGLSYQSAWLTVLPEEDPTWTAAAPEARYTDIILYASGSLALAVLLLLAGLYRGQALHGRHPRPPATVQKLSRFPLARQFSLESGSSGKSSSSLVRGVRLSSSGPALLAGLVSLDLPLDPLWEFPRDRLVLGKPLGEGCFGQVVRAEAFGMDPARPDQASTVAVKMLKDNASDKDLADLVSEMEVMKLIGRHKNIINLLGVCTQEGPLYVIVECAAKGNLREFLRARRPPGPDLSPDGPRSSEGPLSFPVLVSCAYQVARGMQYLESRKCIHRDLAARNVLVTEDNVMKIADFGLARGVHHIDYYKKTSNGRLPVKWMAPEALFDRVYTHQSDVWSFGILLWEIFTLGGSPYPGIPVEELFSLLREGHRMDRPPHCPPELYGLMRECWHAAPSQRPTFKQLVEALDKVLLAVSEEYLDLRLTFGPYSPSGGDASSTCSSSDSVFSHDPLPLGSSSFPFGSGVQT
- Details: at 1 µM;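 further: reported figure is the averaged percent inhibition of FGFR4, from the GSK PKIS kinase screening panel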
Quick reference: inhibition of the listed items.

| Molecular string | Value units | inhibition |
| --- | --- | --- |
| O=C1NC(=O)C(c2cccc(Cl)c2)=C1Nc1ccc(O)c(Cl)c1 | % | 2.43 |
| CN1CCC(C(=O)Nc2n[nH]c3nnc(-c4ccccc4)cc23)CC1 | % | -0.57 |
| Cc1cc(O)cc(C)c1/C=C/c1cncc(-c2nn[nH]n2)c1 | % | 0.95 |
| c1cnn2ncc(-c3ccnc(Nc4ccc5c(c4)OCCO5)n3)c2c1 | % | 4.77 |
| Fc1cccc(COc2ccc(Nc3ncnc4sc(-c5cccs5)cc34)cc2Cl)c1 | % | 3.41 |
| CS(=O)(=O)CCNCc1ccc(-c2ccc3ncnc(Nc4ccc(OCc5ccccc5)c(Cl)c4)c3c2)o1 | % | 0.28 |
| CS(=O)(=O)Nc1ccc(N/C=C2\C(=O)Nc3ccccc32)cc1 | % | 5.07 |
| O=C1NC(=O)C(N2CCc3ccccc32)=C1c1ccc(Cl)cc1 | % | 1.44 |

Value source: ChEMBL document CHEMBL1961873
